Listed below: melting point values for each entry.
quantity-name: melting point

compound: N#Cc1ccsc1-c1[nH]c(=O)c(-c2ccccc2)cc1C(=O)O
result: 255 to 257 °C
//
compound: COCCc1nc2c(N)nc3cc(Br)cnc3c2n1CC(C)(C)O
result: 210 to 211 °C
//
compound: CCC1CCCCN1C(=O)C=Cc1c(-c2cccc(N)c2)nn2ccccc12 (stereo not drawn)
result: 150 to 151 °C
//
compound: CN(C(=O)OC(C)(C)C)[C@@H]1CCc2c(c3cc(S(=O)(=O)c4ccccc4)ccc3n2C)C1
result: 181 to 183 °C
//
compound: CSc1ccc(C(O)(c2ccc(Cl)cc2)C2CCN(CCO)C2=O)cc1 (stereo not drawn)
result: 141 °C
//
compound: COc1ccc(C2=C(c3ccc(S(C)(=O)=O)cc3)CCC2)cc1
result: 129 to 130 °C
//
compound: CC(C)(C)N1CC(c2cc(Cl)c(N)c(Cl)c2)OC1=O (stereo not drawn)
result: 97 to 103 °C
//
compound: COc1cc(OC)nc(NC(=O)NS(=O)(=O)c2cccc3c2SC(C)(C)C3)n1
result: 190 to 192 °C
